src = ChEMBL document CHEMBL4402598

# Test Method Notes: Ratio of drug level in ICR mouse brain to plasma at 10 mg/kg, po measured after 2 hrs by LC-MS/MS analysis
# Type: ADME, organism-based
# Settings: read-out: BPR
Kp at 2 h values, listed per item
Number only, no unit.

{"columns": ["Record Smiles", "Kp at 2 h"],
 "data": [
  ["CCCN(CCCCNC(=O)c1ccc(-c2ccccn2)cc1)C[C@@H]1C[C@H]1c1cc(F)ccc1OC.Cl", 0.79],
  ["CCCN(CCCCNC(=O)c1ccc2ccccc2c1)C[C@@H]1C[C@H]1c1cccc(Cl)c1Cl.Cl", 1.61],
  ["CCCN(CCCCNC(=O)c1ccc(-c2ccccn2)cc1)C[C@@H]1C[C@H]1c1cccc(Cl)c1Cl.Cl", 0.207]
]}

get_value(item= CCCN(CCCCNC(=O)c1cc2ccccc2[nH]1)C[C@@H]1C[C@H]1c1cccc(Cl)c1Cl.Cl , readout=Kp at 2 h) returns 2.36

----------
# Test Method Notes: Drug level in ICR mouse brain at 5 mg/kg, iv measured after 2 hrs by LC-MS/MS analysis
# Format: ADME, organism-based
Reported Property: concentration at 2 h (ng/mL)
Give your result in ng/mL as a bare value.

# example entries with known answers
{"columns": ["Record Smiles", "Reported Property", "Value Observed"],
 "data": [
  ["CCCN(CCCCNC(=O)c1ccc2ccccc2c1)C[C@@H]1C[C@H]1c1cccc(Cl)c1Cl.Cl", "concentration at 2 h", 913],
  ["CCCN(CCCCNC(=O)c1ccc(-c2ccccn2)cc1)C[C@@H]1C[C@H]1c1cccc(Cl)c1Cl.Cl", "concentration at 2 h", 227],
  ["CCCN(CCCCNC(=O)c1ccc(-c2ccccn2)cc1)C[C@@H]1C[C@H]1c1cc(F)ccc1OC.Cl", "concentration at 2 h", 19.4]
]}

get_value(item= CCCN(CCCCNC(=O)c1cc2ccccc2[nH]1)C[C@@H]1C[C@H]1c1cccc(Cl)c1Cl.Cl , readout=concentration at 2 h) returns 543

----------
# Target Under Test: UniProt:P21917
# Test Method Notes: Displacement of [3H]-N-methylspiperone from recombinant human D4 receptor stably expressed in HEK cell membranes measured after 90 mins by microbeta scintillation counting method
Reported Property: Ki

# example entries with known answers
{"columns": ["Compound", "Target Under Test", "Value Observed"],
 "data": [
  ["CCCN(CCCCNC(=O)c1ccc(-c2ccccn2)cc1)CC1CC1c1cc(F)ccc1OC (racemic)", "UniProt:P21917", "1140 nM"],
  ["COc1ccc(F)cc1C1CC1CN(C)CCCSc1nnc(-c2ccccc2)n1C (stereo not given)", "UniProt:P21917", "85.1 nM"],
  ["CCN(CCCSc1nnc(-c2ccccc2)n1C)CC1CC1c1cc(F)ccc1OC (stereo not given)", "UniProt:P21917", "30 nM"]
]}

get_value(item= CCCN(CCCCNC(=O)c1ccc(-c2ccccn2)cc1)C[C@@H]1C[C@H]1c1cc(F)ccc1OC.Cl , readout=Ki) returns 575 nM

get_value(item= COc1ccc(Cl)cc1C1CC1CN(CCCSc1nnc(-c2ccccc2)n1C)CC1CC1 (stereo not given) , readout=Ki) returns 163 nM

----------
# Target Under Test: 5-hydroxytryptamine receptor 2C (Homo sapiens, UniProt P28335)
# Sequence (P28335 whole entry): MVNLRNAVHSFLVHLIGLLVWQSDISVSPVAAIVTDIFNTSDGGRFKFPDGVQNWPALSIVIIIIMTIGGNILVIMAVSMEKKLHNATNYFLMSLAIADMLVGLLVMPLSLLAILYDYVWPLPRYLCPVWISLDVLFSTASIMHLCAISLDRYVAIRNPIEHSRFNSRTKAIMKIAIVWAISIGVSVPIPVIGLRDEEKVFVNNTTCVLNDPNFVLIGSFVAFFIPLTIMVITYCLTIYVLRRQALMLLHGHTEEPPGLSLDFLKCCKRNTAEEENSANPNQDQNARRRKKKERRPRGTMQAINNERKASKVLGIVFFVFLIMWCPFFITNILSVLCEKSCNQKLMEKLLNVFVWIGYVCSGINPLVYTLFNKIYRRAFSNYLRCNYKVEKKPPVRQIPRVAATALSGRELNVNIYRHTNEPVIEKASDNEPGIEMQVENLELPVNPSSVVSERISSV
# Test Method Notes: Displacement of [3H]-Mesulergine from recombinant human 5HT2C receptor expressed in HEKT cell membranes measured after 90 mins by microbeta scintillation counting method
Threshold-based label: Ki under 100 nM gives 1.0, Ki not under 100 nM gives 0.0.

{"columns": ["Compound", "Class Assignment"],
 "data": [
  ["CCCN(CCCSc1nnc(-c2ccccc2)n1C)CC1CC1c1cc(F)ccc1OC (centres undefined)", 0.0],
  ["CCCN(CCCCNC(=O)c1ccc2ccccc2c1)CC1CC1c1cccc(Cl)c1Cl (racemic)", 0.0],
  ["CCCN(CCCCNC(=O)c1cc2ccccc2[nH]1)C[C@H]1C[C@@H]1c1cccc(Cl)c1Cl.Cl", 1.0],
  ["CCCN(CCCCNC(=O)c1ccc(-c2ccccn2)cc1)CC1CC1c1ccc(C(F)(F)F)cc1 (centres undefined)", 0.0],
  ["CCCN(CCCCNC(=O)c1cc2ccccc2[nH]1)CC1CC1c1ccc(C(F)(F)F)cc1 (centres undefined)", 0.0]
]}

Inquiry: Could you please tell me whether Ki recorded for CCCN(CCCCNC(=O)c1ccc2ccccc2c1)CC1CC1c1cccc(Cl)c1 (centres undefined) is less than 100 nM?
Reply text: 0.0

Inquiry: Could you please tell me whether Ki recorded for CCCN(CCCCNC(=O)c1ccc2ccccc2c1)CC1CC1c1ccc(C(F)(F)F)cc1 (centres undefined) is less than 100 nM?
Reply text: 0.0

Inquiry: Could you please tell me whether Ki recorded for COc1ccc(F)cc1C1CC1CN(CCCSc1nnc(-c2ccccc2)n1C)C(C)C (centres undefined) is less than 100 nM?
Reply text: 0.0

Inquiry: Could you please tell me whether Ki recorded for CCN(CCCCNC(=O)c1ccc2ccccc2c1)CC1CC1c1cc(Cl)ccc1OC (centres undefined) is less than 100 nM?
Reply text: 1.0

----------
# Target Under Test: D(4) dopamine receptor (Homo sapiens)
# Sequence (P21917 whole entry): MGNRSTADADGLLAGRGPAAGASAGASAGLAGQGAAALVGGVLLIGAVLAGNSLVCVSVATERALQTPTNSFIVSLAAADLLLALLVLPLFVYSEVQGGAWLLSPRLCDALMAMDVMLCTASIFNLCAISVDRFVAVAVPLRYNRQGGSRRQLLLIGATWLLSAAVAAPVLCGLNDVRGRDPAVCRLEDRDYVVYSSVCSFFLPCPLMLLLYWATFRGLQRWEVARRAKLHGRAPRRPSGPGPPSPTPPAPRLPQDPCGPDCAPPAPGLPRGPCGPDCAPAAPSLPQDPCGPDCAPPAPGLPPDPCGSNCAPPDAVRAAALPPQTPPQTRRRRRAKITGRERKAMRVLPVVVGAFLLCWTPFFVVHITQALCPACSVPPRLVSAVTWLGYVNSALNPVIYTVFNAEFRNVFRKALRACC
# Test Method Notes: Displacement of [3H]-N-methylspiperone from recombinant human D4 receptor stably expressed in HEK cell membranes measured after 90 mins by microbeta scintillation counting method
pKi: −log10 of the molar value.
Assign class by pKi: not lower than 6 means yes (1); lower than 6 means no (0).

{"columns": ["Molecule", "Target Under Test", "Class Assignment"],
 "data": [
  ["CCCN(CCCSc1nnc(-c2ccccc2)n1C)CC1CC1c1cc(Cl)ccc1OC (stereo not given)", "D(4) dopamine receptor (Homo sapiens)", "yes (1)"],
  ["CCOc1ccc(F)cc1C1CC1CN(CC)CCCSc1nnc(-c2ccccc2)n1C (stereo not given)", "D(4) dopamine receptor (Homo sapiens)", "yes (1)"],
  ["CCN(CCCCNC(=O)c1ccc2ccccc2c1)CC1CC1c1cc(F)ccc1OC (stereo not given)", "D(4) dopamine receptor (Homo sapiens)", "yes (1)"]
]}

Turning to the following molecule.
Inquiry: # check: pKi of CCCN(CCCCNC(=O)c1cc2ccccc2[nH]1)CC1CC1c1ccc(F)cc1 (stereo not given) is greater than or equal to 6
Reply text: no (0)

----------
# Test Method Notes: Ratio of drug level in ICR mouse brain to plasma at 5 mg/kg, iv measured after 0.5 hrs by LC-MS/MS analysis
# Assay type: ADME, organism-based
# Settings: read-out: BPR
Reported Property: Kp at 0.5 h
Number only, no unit.

# example entries with known answers
{"columns": ["Record Smiles", "Kp at 0.5 h"],
 "data": [
  ["CCCN(CCCCNC(=O)c1ccc(-c2ccccn2)cc1)C[C@@H]1C[C@H]1c1cccc(Cl)c1Cl.Cl", 1.92],
  ["CCCN(CCCCNC(=O)c1ccc2ccccc2c1)C[C@@H]1C[C@H]1c1cccc(Cl)c1Cl.Cl", 12.7],
  ["CCCN(CCCCNC(=O)c1cc2ccccc2[nH]1)C[C@@H]1C[C@H]1c1cccc(Cl)c1Cl.Cl", 3.88]
]}

# evaluate next
get_value(item= CCCN(CCCCNC(=O)c1ccc(-c2ccccn2)cc1)C[C@@H]1C[C@H]1c1cc(F)ccc1OC.Cl , readout=Kp at 0.5 h) returns 1.19

----------
# Target Under Test: 5-hydroxytryptamine receptor 2C (Homo sapiens)
# Test Method Notes: Displacement of [3H]-Mesulergine from recombinant human 5HT2C receptor expressed in HEKT cell membranes measured after 90 mins by microbeta scintillation counting method
Reported Property: Ki (nM)
Give your result in nM as a bare value.

# example entries with known answers
{"columns": ["Compound", "Target Under Test", "Reported Property", "Unit Info", "Value Observed"],
 "data": [
  ["CCCN(CCCCNC(=O)c1cc2ccccc2[nH]1)C[C@@H]1C[C@H]1c1cccc(Cl)c1Cl.Cl", "5-hydroxytryptamine receptor 2C (Homo sapiens)", "Ki", "nM", 513],
  ["CCCN(CCCCNC(=O)c1ccc2ccccc2c1)C[C@@H]1C[C@H]1c1cccc(Cl)c1Cl.Cl", "5-hydroxytryptamine receptor 2C (Homo sapiens)", "Ki", "nM", 427],
  ["CCCN(CCCCNC(=O)c1ccc2ccccc2c1)CC1CC1c1cc(Cl)ccc1OC (centres undefined)", "5-hydroxytryptamine receptor 2C (Homo sapiens)", "Ki", "nM", 85]
]}

# evaluate next
5-hydroxytryptamine receptor 2C (Homo sapiens) assay, compound CCCN(CCCCNC(=O)c1ccc2ccccc2c1)CC1CC1c1ccc(Cl)cc1 (centres undefined) , recorded Ki = 179
